Biological target: T1, human MET-Fc (R&D Systems) (human, UniProt P08581 25-932)
T1 construct: extracellular domain; bought chimeric protein; also called hMET; not shown: Fc portion of human IgG1
T1 sequence (P08581 25-932): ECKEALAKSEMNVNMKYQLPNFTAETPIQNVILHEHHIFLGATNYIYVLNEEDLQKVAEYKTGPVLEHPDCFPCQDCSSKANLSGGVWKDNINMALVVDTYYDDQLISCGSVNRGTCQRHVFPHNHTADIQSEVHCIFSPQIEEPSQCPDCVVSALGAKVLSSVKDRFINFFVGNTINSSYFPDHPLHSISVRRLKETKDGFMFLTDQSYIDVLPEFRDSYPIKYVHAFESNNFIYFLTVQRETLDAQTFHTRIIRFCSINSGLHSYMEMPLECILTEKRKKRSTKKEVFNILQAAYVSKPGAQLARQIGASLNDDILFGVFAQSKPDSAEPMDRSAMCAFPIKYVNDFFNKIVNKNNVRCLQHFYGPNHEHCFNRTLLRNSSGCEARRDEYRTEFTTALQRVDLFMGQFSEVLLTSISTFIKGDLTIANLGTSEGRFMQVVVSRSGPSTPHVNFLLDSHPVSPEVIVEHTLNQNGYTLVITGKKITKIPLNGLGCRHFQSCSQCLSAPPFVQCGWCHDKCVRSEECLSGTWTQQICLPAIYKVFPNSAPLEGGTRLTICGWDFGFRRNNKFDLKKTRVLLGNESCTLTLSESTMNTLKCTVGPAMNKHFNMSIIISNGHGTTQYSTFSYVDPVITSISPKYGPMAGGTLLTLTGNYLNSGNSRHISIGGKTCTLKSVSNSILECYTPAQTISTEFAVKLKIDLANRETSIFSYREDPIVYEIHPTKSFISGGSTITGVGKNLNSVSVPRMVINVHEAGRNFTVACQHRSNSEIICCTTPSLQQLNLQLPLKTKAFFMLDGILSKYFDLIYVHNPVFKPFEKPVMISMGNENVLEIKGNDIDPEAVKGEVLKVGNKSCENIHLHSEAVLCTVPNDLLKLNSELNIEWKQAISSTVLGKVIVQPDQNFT
Assay: competition ELISA, hMET-Fc in solid phase, competitor 0.3 nM biotinylated hHGF
MEASURED_QUANTITY: pIC50
Reminder that pIC50 is minus the log10 of a molar concentration.

1) 76H10 chimeric llama-human IgG1 mAb (antibody, V domains shown, llama VH on human IgG1 CH1-CH2-CH3, llama VL on human lambda CL) VH: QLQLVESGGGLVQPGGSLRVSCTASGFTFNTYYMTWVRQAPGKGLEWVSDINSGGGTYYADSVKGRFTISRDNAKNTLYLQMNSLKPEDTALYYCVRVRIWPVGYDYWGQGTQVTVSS VL: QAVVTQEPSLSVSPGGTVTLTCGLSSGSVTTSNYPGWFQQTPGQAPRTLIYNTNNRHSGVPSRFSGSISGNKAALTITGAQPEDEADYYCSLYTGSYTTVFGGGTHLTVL	8.73

Shift focus to the following entry.
**Query** Provide only the value of recorded pIC50 for 71G2 chimeric llama-human IgG1 mAb (antibody, V domains shown, llama VH on human IgG1 CH1-CH2-CH3, llama VL on human lambda CL) VH: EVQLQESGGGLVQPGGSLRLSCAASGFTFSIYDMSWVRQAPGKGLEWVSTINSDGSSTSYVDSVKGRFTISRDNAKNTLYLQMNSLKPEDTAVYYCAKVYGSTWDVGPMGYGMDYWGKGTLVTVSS VL: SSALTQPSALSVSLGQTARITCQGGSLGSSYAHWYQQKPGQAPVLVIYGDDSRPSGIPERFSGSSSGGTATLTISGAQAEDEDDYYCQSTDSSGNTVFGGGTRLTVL
**Result** 9.64
